# Tested System: hNELF-E(mut) (human, UniProt P18615 1-380, E269N;D270K;M271V;P273E;T274D;L275F)
# Sequence (P18615 whole entry E269N/D270K/M271V/P273E/T274D/L275F): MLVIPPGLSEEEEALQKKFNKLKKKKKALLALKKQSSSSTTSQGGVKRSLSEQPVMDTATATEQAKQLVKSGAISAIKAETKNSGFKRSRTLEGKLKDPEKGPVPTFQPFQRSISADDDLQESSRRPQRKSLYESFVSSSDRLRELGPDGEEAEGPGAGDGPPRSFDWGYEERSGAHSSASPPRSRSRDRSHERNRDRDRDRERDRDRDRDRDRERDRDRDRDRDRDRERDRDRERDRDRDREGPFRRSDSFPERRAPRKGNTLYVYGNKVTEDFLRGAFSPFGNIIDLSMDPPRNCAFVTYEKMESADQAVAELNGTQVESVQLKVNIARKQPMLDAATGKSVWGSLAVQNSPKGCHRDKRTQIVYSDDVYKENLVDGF
# Test Summary: fluorescence polarization; 10 mM HEPES-NaOH pH 7.5, 100 mM NaCl, 25 mM KCl, 1 mM MgCl2, 0.02% Tween-20, 0.01% IGEPAL CA-630, 10 µg/ml yeast tRNA; 2 nM RNA, 0-2000 nM protein, 1-2 h, binding temperature not stated; gel 5% acrylamide 0.5X TBE at 4 °C
# Run Parameters: protein: recombinant; tags: N-terminal His6 (pHIS-parallel1); label: 3' fluorescein (5-thiosemicarbazide); hairpin with UCU bulge
Recorded Endpoint: pKd
Friendly reminder that pKd comes from taking -log10 of the concentration in mol/L.

HIV-1 TAR (structured_RNA) RNA: GGUCUCUCUGGUUAGACCAGAUCUGAGCCUGGGAGCUCUCUGGCUAACUAGGGAACC : 6.82

// switching to the query binder
Query: Quickly give me recorded pKd for HIV-1 TAR+A (structured_RNA) RNA: GGUCUCUCUGGUUAGACCAGAUCUGAGCCUGAGGAGCUCUCUGGCUAACUAGGGAACC
Response: 6.77
